assay: Toxicity liver stage against HepG2, at 10uM; format: cell-based; set-up: test concentration 10 uM, cell line HepG2-A16-CD81EGFP; details: human, HepG2-A16-CD81EGFP cells; read-out: INHIBITION
PROPERTY_MEASURED: cytotoxicity at 10 µM (%)
Give bare numbers, in %.

As a guide, the following entries are already answered.
[
  {
    "MOLECULE": "CSc1ncccc1C(=O)N1C[C@@H]2CC[C@H]1CN(C(=O)N(C)C)C2",
    "cytotoxicity at 10 µM, %": 1.71
  },
  {
    "MOLECULE": "O=C(NCCOc1ccccc1)C1NCCc2[nH]cnc21 (configuration not stated)",
    "cytotoxicity at 10 µM, %": 8.01
  },
  {
    "MOLECULE": "CN1CC(C(=O)NCc2cccnc2-n2cccn2)CC1=O (configuration not stated)",
    "cytotoxicity at 10 µM, %": -6.18
  },
  {
    "MOLECULE": "O=C(Cc1csc(-c2ccccc2F)n1)NCc1ccc(C(=O)O)cc1",
    "cytotoxicity at 10 µM, %": -3.85
  },
  {
    "MOLECULE": "O=C1CCCN1Cc1ncn2c1CN(C(=O)N1CCCC1)CCC2",
    "cytotoxicity at 10 µM, %": -2.36
  }
]

Below are some molecules; for each one, tell me its cytotoxicity at 10 µM.
1. COC(=O)N1CCc2ccc(NC(=O)c3cn(C)nn3)cc2C1
2. Cc1nc(CNC(=O)NCC(O)c2ccc(F)cc2F)cs1 (configuration not stated)
3. CN(Cc1ccccc1)C(=O)CN1CCCCC1Cn1cncn1 (configuration not stated)

Given back:
1. -1.3
2. 6.5
3. 10.4

Below are some molecules; for each one, tell me its cytotoxicity at 10 µM.
1. NC(=O)C(NCc1cccs1)c1ccccc1 (configuration not stated)
2. CC(C)Cc1cc(CNC(=O)c2cccc3c2NCCC3)no1
3. CN(C)Cc1ccnc(NS(=O)(=O)Cc2cccc(F)c2)c1

Given back:
[-41.5, -50.7, 1.76]

Below are some molecules; for each one, tell me its cytotoxicity at 10 µM.
1. O=C(NCCSCc1ccc(Br)s1)C1CCCN(c2cnccn2)C1 (configuration not stated)
2. COc1ccc(C(=O)C2CCCN(c3nccc(N)n3)C2)c(C)c1 (configuration not stated)

Given back:
[5.34, 5.67]

Below are some molecules; for each one, tell me its cytotoxicity at 10 µM.
1. Cc1ccc(CN(CC(=O)N2CCOC(C)C2)C2CC2)cc1 (configuration not stated)
2. c1cn(-c2nccnc2C2CCCN(C3CCOCC3)C2)cn1 (configuration not stated)
3. Cc1sc(NC(=O)CN2CCCC(c3ncc[nH]3)C2)c(C)c1C (configuration not stated)
4. O=C1Nc2ccccc2C12CCCN(Cc1ccncc1)C2 (configuration not stated)
5. Cc1cc(C(=O)N2CCN(c3ccncc3Cl)CC2)n(C)n1
6. Cc1noc([C@H]2CC[C@@H]3[C@@H](CCN3c3ncccn3)O2)n1
7. CN(C)[C@@H]1CCN(C(=O)c2ccsc2)[C@H]1Cc1cccnc1
8. Cc1cccc(N2CCC3(CCCN3Cc3c(C)nn(C)c3C)CC2)n1

Given back:
-11.9
4.19
28.1
4.32
-9.1
3.06
-66.7
-8.35

Asked: Any idea what its cytotoxicity at 10 µM is? The molecule is O=S(=O)(c1ccc(F)cc1Cl)N1CCCC1c1ccncc1 (configuration not stated)
Given back: -7.95

###

test: Toxicity liver stage against HepG2, at 10uM; type: cell-based; set-up: test concentration 10 uM, cell line HepG2-A16-CD81EGFP; conditions: human, HepG2-A16-CD81EGFP cells; read-out: INHIBITION
Assignment: determine reported cytotoxicity at 10 µM for the given molecules.
Answers are plain numbers, in %.

[
  {
    "MOLECULE": "Cc1ccc(CN2CCC(NC(=O)c3scnc3C)CC2)cc1",
    "cytotoxicity at 10 µM / %": -4.1
  },
  {
    "MOLECULE": "Cc1noc(CNC(=O)c2ccccc2-n2cc(CN)cn2)n1",
    "cytotoxicity at 10 µM / %": -19.6
  },
  {
    "MOLECULE": "O=C(NCc1ccc(Cl)cc1Cl)NCC1(O)CCSC1 (stereo unspecified)",
    "cytotoxicity at 10 µM / %": -9.12
  },
  {
    "MOLECULE": "O=C(C(CNCc1ccccc1O)c1ccccc1)N1CCOCC1 (stereo unspecified)",
    "cytotoxicity at 10 µM / %": -0.138
  },
  {
    "MOLECULE": "O=C(O)c1cc2c(nc1-c1ccoc1)CCN(CC1CCOC1)CC2 (stereo unspecified)",
    "cytotoxicity at 10 µM / %": -81.9
  }
]

The record that follows has no cytotoxicity at 10 µM shown yet.
Asked: Any idea what its cytotoxicity at 10 µM is? The molecule is CN(Cc1ccsc1)C(=O)Nc1ccc(=O)n(C)c1
Given back: 6.26

###

test: Toxicity liver stage against HepG2, at 10uM; format: cell-based; set-up: test concentration 10 uM, cell line HepG2-A16-CD81EGFP; conditions: human, HepG2-A16-CD81EGFP cells; read-out: INHIBITION
Assignment: determine reported cytotoxicity at 10 µM for the given compounds.
Just so you know, I need the unit written after the number.

As a guide, the following entries are already answered.
[
  {
    "COMPOUND": "CN(C)C(=O)NC1COC2(CCN(C(=O)Nc3ccccc3)CC2)C1 (stereo not drawn)",
    "cytotoxicity at 10 µM": "0.179%"
  },
  {
    "COMPOUND": "CCOC(=O)c1coc(N2CCN(Cc3cc(C)cc(C)c3)C(=O)C2)n1",
    "cytotoxicity at 10 µM": "4.24%"
  }
]

The record that follows has no cytotoxicity at 10 µM shown yet.
Asked: Any idea what its cytotoxicity at 10 µM is? The compound is COc1ccc(CN2CCO[C@H]3CN(C(=O)C4CC4)CC[C@H]3C2=O)cc1
Given back: -147%

###

experiment: Toxicity liver stage against HepG2, at 10uM; assay type: cell-based; set-up: test concentration 10 uM, cell line HepG2-A16-CD81EGFP; conditions: human, HepG2-A16-CD81EGFP cells; read-out: INHIBITION
Assignment: determine reported cytotoxicity at 10 µM for the given compounds.
Answers are plain numbers, in %.

As a guide, the following entries are already answered.
[
  {
    "COMPOUND": "CCc1ccc(S(=O)(=O)N2CCCC(c3ncc[nH]3)C2)s1 (stereo not drawn)",
    "cytotoxicity at 10 µM (%)": 12.8
  },
  {
    "COMPOUND": "CC(O)CC(C)(C)CNC(=O)NCc1cccc(-n2ccnc2)c1 (stereo not drawn)",
    "cytotoxicity at 10 µM (%)": -3.34
  }
]

The record that follows has no cytotoxicity at 10 µM shown yet.
Asked: Any idea what its cytotoxicity at 10 µM is? The compound is c1cc(CN2CCCC(c3noc(C4CC4)n3)C2)no1 (stereo not drawn)
Given back: -7.57

###

assay: Toxicity liver stage against HepG2, at 10uM; assay type: cell-based; set-up: test concentration 10 uM, cell line HepG2-A16-CD81EGFP; conditions: human, HepG2-A16-CD81EGFP cells; read-out: INHIBITION
Assignment: determine reported cytotoxicity at 10 µM for the given molecules.
Give bare numbers, in %.

As a guide, the following entries are already answered.
[
  {
    "MOLECULE": "CS(=O)(=O)NCc1noc2c1CN(C(=O)c1ccsc1)CC2",
    "cytotoxicity at 10 µM, %": 7.86
  },
  {
    "MOLECULE": "CC(C)NC(=O)c1ccc2c(c1)nc1n2CCN(c2ccccc2)C1",
    "cytotoxicity at 10 µM, %": -3.99
  },
  {
    "MOLECULE": "CC(C)[C@H](NC(=O)NC1CCS(=O)(=O)C1)C(=O)NCc1ccc(Cl)cc1 (some centres not stated)",
    "cytotoxicity at 10 µM, %": 3.09
  },
  {
    "MOLECULE": "CC[C@H]1NCCC[C@]12CCC(=O)N2Cc1ccncc1",
    "cytotoxicity at 10 µM, %": 6.29
  }
]

Below are some molecules; for each one, tell me its cytotoxicity at 10 µM.
1. COc1cccc(S(=O)(=O)NC(=O)CCC2CCCO2)c1 (configuration not stated)
2. Cc1nc(-c2ccccc2C)n(CC(=O)NC(C)C)n1

Given back:
1. -14.7
2. 7.47

###

Assignment: determine reported cytotoxicity at 10 µM for the given molecules.
test: Toxicity liver stage against HepG2, at 10uM; type: cell-based; set-up: test concentration 10 uM, cell line HepG2-A16-CD81EGFP; conditions: human, HepG2-A16-CD81EGFP cells; read-out: INHIBITION
Numbers only, in %.

As a guide, the following entries are already answered.
[
  {
    "MOLECULE": "CC(C)CN1C(=O)C2(CCN(Cc3cccs3)C2)c2ccccc21 (stereo not drawn)",
    "RECORDED_NUMBER": 10.1
  },
  {
    "MOLECULE": "CN1CC[C@H](N(C)Cc2ccccc2)C[C@H](O)C1",
    "RECORDED_NUMBER": -0.895
  },
  {
    "MOLECULE": "CN1CCN(c2ccc(Cl)cc2NC(=O)c2ccco2)CC1",
    "RECORDED_NUMBER": -2.14
  }
]

Below are some molecules; for each one, tell me its cytotoxicity at 10 µM.
1. F[C@@H]1CN(CC2CC2)C[C@@H]1OCc1nc2ccc(C(F)(F)F)cc2[nH]1
2. OCC1CCCN1c1cc(N2CCc3ccccc3C2)ncn1 (stereo not drawn)
3. Cc1ccc(NC2CCN(C(=O)COC3CCCCC3)CC2)nn1
4. C[C@H](O)CNc1cc(-c2cn[nH]c2)ncn1
5. CC(C)N1CCC(CC(=O)N(C)C(C)c2cncs2)CC1 (stereo not drawn)
6. CC(C)N(C)Cc1cnc2n1CCN(Cc1cccc(C#N)c1)C2
7. Fc1cccc(-n2ccc(CN3CCCCC3Cn3cncn3)n2)c1 (stereo not drawn)

Given back:
[-6.22, 2.53, 5.94, -15.6, 3.65, 7.48, -3.81]

Below are some molecules; for each one, tell me its cytotoxicity at 10 µM.
1. O=C(NCC1CCCO1)c1cc(-c2ccc3c(c2)CCO3)n[nH]1 (stereo not drawn)
2. COCCN1CCc2cc(C(=O)O)c(-c3ccoc3)nc2CC1
3. CC(OCC1CC1)C(=O)Nc1nccn1Cc1ccccc1 (stereo not drawn)

Given back:
[-8.13, -75.6, -6.79]
